- TESTED_SYSTEM: Sialidase-3 (Homo sapiens, UniProt Q9UQ49)
- Sequence (Q9UQ49 whole entry): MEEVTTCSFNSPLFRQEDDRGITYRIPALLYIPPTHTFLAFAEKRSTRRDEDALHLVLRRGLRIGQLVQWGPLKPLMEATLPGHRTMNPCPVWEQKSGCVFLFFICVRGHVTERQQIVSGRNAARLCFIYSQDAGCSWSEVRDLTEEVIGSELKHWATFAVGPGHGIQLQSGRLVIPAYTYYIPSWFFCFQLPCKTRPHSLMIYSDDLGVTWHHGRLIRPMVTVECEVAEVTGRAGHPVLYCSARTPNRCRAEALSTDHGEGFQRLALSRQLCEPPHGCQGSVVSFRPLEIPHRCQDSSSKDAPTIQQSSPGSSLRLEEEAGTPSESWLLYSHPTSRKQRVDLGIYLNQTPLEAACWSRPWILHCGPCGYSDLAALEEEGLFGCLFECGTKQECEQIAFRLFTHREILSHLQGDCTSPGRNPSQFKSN
- TEST_SUMMARY: Inhibition of human NEU3 using 4MU-NA as substrate after 1 hr by fluorescence assay
MEASURED_PARAMETER: IC50

INSERT INTO assay_data (molecular_string, tested_system, result) VALUES
  ('CCC(CC)O[C@@H]1CC(C(=O)O)=C[C@H](n2cc(C(C)(C)O)nn2)[C@H]1NC(C)=O', 'Sialidase-3 (Homo sapiens, UniProt Q9UQ49)', '> 1000 µM');

* * *

- TEST_SUMMARY: Inhibition of viral Neuraminidase
MEASURED_PARAMETER: Ki (nM)

INSERT INTO measurements (compound, measured_parameter, readout_number) VALUES
  ('CCC(CC)O[C@@H]1CC(C(=O)O)=C[C@H](n2cc(C(O)CC)nn2)[C@H]1NC(C)=O (stereo partly specified)', 'Ki', 72);

* * *

Reported IC50 values follow for various compounds
- TESTED_SYSTEM: Sialidase-4 (Homo sapiens)
- Sequence (Q8WWR8 whole entry): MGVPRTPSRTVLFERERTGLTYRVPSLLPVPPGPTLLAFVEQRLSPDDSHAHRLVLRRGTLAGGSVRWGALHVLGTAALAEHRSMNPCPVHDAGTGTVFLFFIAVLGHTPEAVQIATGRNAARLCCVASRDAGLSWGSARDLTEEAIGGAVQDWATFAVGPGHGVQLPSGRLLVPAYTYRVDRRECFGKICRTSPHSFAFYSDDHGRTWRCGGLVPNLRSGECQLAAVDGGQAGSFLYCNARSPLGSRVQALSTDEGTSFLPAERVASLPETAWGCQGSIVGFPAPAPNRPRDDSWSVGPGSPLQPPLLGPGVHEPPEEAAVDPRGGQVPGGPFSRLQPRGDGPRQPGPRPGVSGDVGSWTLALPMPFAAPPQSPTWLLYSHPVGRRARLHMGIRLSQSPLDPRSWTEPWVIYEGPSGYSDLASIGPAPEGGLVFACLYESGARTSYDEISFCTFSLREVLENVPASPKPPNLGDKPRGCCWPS
- TEST_SUMMARY: Inhibition of human NEU4 using 4MU-NA as substrate after 1 hr by fluorescence assay
MEASURED_PARAMETER: IC50

INSERT INTO results (compound, result) VALUES
  ('CCC(CC)O[C@@H]1CC(C(=O)O)=C[C@H](n2cc([C@]3(O)CC[C@H]4[C@@H]5CCc6cc(O)ccc6[C@H]5CC[C@@]43C)nn2)[C@H]1NC(C)=O', '800 µM'),
  ('CCC(CC)O[C@@H]1CC(C(=O)O)C=C(n2cc(C(C)(C)O)nn2)[C@H]1NC(C)=O (stereo partly drawn)', '> 1000 µM'),
  ('CCC(CC)O[C@@H]1CC(C(=O)O)=C[C@H](n2cc(C(C)(C)O)nn2)[C@H]1NC(C)=O', '> 1000 µM');
